Let's look at some molecules and their measured GI50 at 48 h.
assay: in vitro; settings: human;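 also: MTT reduction read as absorbance at 595 nm, blank-corrected and expressed as percent growth relative to the time-zero cell reading, triplicate wells per concentration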
Bridge positions count the residues as written; N and C are the ends. Square brackets hold non-standard residues; d marks the D form. Peptide text beside a SMILES is read from it. 2Nal = N[C@@H](Cc1ccc2ccccc2c1)C(=O)O
readout: GI50 at 48 h (µM)

molecule	measurement
N=C(N)NCCC[C@@H]1NC(=O)[C@@H]2CSSC[C@H](NC(=O)[C@H](Cc3ccc4ccccc4c3)NC(=O)[C@H](CCCNC(=N)N)NC(=O)[C@H](CCCNC(=N)N)NC(=O)[C@H]3CCCN3C(=O)CNC1=O)C(=O)N[C@@H](Cc1ccc(O)cc1)C(=O)N[C@@H](CCC(N)=O)C(=O)N[C@@H](CCCCN)C(=O)N1CCC[C@@H]1C(=O)N1CCC[C@H]1C(=O)N[C@@H](Cc1ccc(O)cc1)C(=O)N[C@@H](CCCNC(=N)N)C(=O)N1CCC[C@H]1C(=O)N2 [Ex. 74] (cyclo(YRPCRG[dP]RR[2Nal]CYQK[dP]P); disulfide 4-11)	40
N=C(N)NCCC[C@@H]1NC(=O)[C@@H]2CSSC[C@H](NC(=O)[C@H](Cc3ccc4ccccc4c3)NC(=O)[C@H](CCCNC(=N)N)NC(=O)[C@H](CCCNC(=N)N)NC(=O)[C@H]3CCCN3C(=O)CNC1=O)C(=O)N[C@@H](Cc1ccc(O)cc1)C(=O)N[C@@H](CCC(N)=O)C(=O)N[C@@H](CCCCN)C(=O)N1CCC[C@@H]1C(=O)N1CCC[C@H]1C(=O)N[C@@H](Cc1ccc(O)cc1)C(=O)N[C@@H](CCCNC(=N)N)C(=O)N[C@@H](CC(N)=O)C(=O)N2 [Ex. 92] (cyclo(YRNCRG[dP]RR[2Nal]CYQK[dP]P); disulfide 4-11)	53
